- Run Description: Primary qHTS for delayed death inhibitors of the malarial parasite plastid, 96 hour incubation
- Test Context: P. falciparum luciferase reporter growth; series mostly up to 28.7 µM
The campaign covered roughly 320,000 compounds. About 22,000 (6.9%) were called active. Roughly 27% stayed inconclusive and do not appear here. Calls follow the shape of the dose curve; as a rule, active = well fitted inhibition curve with a large enough effect; inconclusive = small, poorly fitted or top-dose-only effect, or another doubt; inactive = no such curve, though single readings can be large or run the other way. Many of the other results were omitted from the sample, so actives are more common in it than they were.
Outcomes: active, inactive

Compound: Nc1cc(OC(=O)c2ccccc2Br)nn1S(=O)(=O)c1ccccc1
Discrete Label: inactive

Compound: CC1CCCCN1C(=O)CCS(=O)(=O)Cc1ccccc1 (centres undefined)
Discrete Label: inactive

Compound: Cc1cccc(NC(=O)c2cc(S(=O)(=O)N3CCC4(CC3)OCCO4)ccc2F)c1
Discrete Label: inactive

Compound: Cc1nn(C(C)(C)C)c(OC(=O)CC(C)C)c1S(=O)(=O)c1ccccc1
Discrete Label: active

Compound: NC(=O)C1CCN(C(=O)c2ccc(F)c(S(=O)(=O)N3CCOCC3)c2)CC1
Discrete Label: inactive

Compound: C/C=C/c1ccc(OCC(=O)OCC(=O)Nc2c(C)nn(-c3ccccc3)c2C)c(OC)c1
Discrete Label: inactive

Compound: CC(=O)NCCC(=O)Nc1nc(-c2ccc3c(c2)OCCO3)cs1
Discrete Label: inactive

Compound: O=C(c1ccc(F)c(S(=O)(=O)N2CCOCC2)c1)N(CCc1ccccc1)Cc1ccccc1
Discrete Label: active

Compound: c1ccc(CSCCc2ccncc2)cc1
Discrete Label: inactive

Compound: S=C(NCc1ccc(Cl)cc1)NC1CCCCC1
Discrete Label: inactive

Compound: S=C(NCc1ccc(Cl)cc1)NC12CC3CC(CC(C3)C1)C2
Discrete Label: active

Compound: CCOCCCNc1c(CC)c(C)c(C#N)c2nc3ccccc3n12
Discrete Label: inactive

Compound: O=C(Nc1nc2ccccc2s1)c1ccc2c(c1)OCO2
Discrete Label: inactive

Compound: COc1cc(C(=S)NCc2ccccc2)cc(Br)c1O
Discrete Label: inactive

Compound: Cc1nc(N2CCN(c3ccccn3)CC2)c2c(C)c(C(=O)Nc3ccc(F)cc3)sc2n1
Discrete Label: active

Compound: Cc1ccc(-c2csc(NC(=O)c3cnccn3)n2)cc1C
Discrete Label: inactive

Compound: CC(C)(C)c1ccc(SCCc2ccncc2)cc1
Discrete Label: inactive

Compound: O=C1C2C3C=CC(C4CC34)C2C(=O)N1/N=C/c1ccc(-c2ccccc2[N+](=O)[O-])o1 (centres undefined)
Discrete Label: active

Compound: CCN(CC)c1ccc(NC(=O)CN2CCN(c3ccccn3)CC2)cc1
Discrete Label: inactive

Compound: Cc1c(Cl)cccc1NC(=O)NCCCN1CCCC1=O
Discrete Label: inactive

Compound: CC(C)c1ccc(S(=O)(=O)N2CCC3(CC2)OCCO3)cc1
Discrete Label: inactive

Compound: O=C(Nc1nonc1-c1ccc(Cl)cc1)c1ccco1
Discrete Label: inactive

Compound: COc1ccc(-n2nnnc2CNC(=O)c2ccc3ccccc3c2)cc1
Discrete Label: inactive

Compound: COc1ccc(NC(=O)CN(C)C(=O)CNC(=O)C2CCCCC2)cc1
Discrete Label: inactive

Compound: CN1C(=O)C2(OCCCO2)c2cc(Cl)ccc21
Discrete Label: inactive

Compound: COc1ccc(CNC(=O)C(=O)N2CCC3(CC2)OCCN3S(=O)(=O)c2ccc(C)cc2)cc1
Discrete Label: inactive

Compound: Cc1ccc(-c2csc(NC(=O)C3=COCCO3)n2)cc1C
Discrete Label: active

Compound: CCOC(=O)c1ccc(NC(=O)CNC(=O)c2ccco2)cc1
Discrete Label: inactive

Compound: Cc1csc(NC(=O)C2=COCCO2)n1
Discrete Label: inactive

Compound: O=C(Nc1nc(-c2ccc3c(c2)OCO3)cs1)c1ccncc1
Discrete Label: active

Compound: Cc1ccc(S(=O)(=O)n2nc(OC(=O)C(C)(C)C)cc2N)cc1
Discrete Label: inactive

Compound: CN(CCO)c1ccc(/C=N/Nc2nncc3ccccc23)cc1
Discrete Label: inactive

Compound: O=[N+]([O-])c1cc(S(=O)(=O)NCCc2ccccn2)ccc1Cl
Discrete Label: inactive

Compound: O=C(NCc1ccc(Cl)cc1)NCc1ccc(Cl)cc1
Discrete Label: inactive

Compound: O=C(N/N=C/c1coc2ccccc2c1=O)c1cc2ccccc2o1
Discrete Label: inactive

Compound: CCN(CC)CCCNC(=O)COc1ccc2oc3c(c2c1)CCCC3
Discrete Label: inactive

Compound: CCC1(c2ccccc2)NC(=O)N(CC(=O)Nc2ccccc2C(=O)NC2CCCC2)C1=O (centres undefined)
Discrete Label: inactive

Compound: Cc1cc([N+](=O)[O-])c(-c2ccc(/C=N/n3cnnc3)o2)cc1Cl
Discrete Label: inactive

Compound: Cc1cc(-c2ccc(/C=N/n3cnnc3)o2)c([N+](=O)[O-])cc1C
Discrete Label: inactive
